# Experiment description: PK profile of HBI-2375 in plasma and brain in C57BL/6J mice
# Assay type: in vivo
# Setup conditions: mouse; C57BL/6J mice, 7-day repeat PO 80 mg/kg, plasma, male
Test readout: Tmax at 7 day (h)

Input smiles	Quantitative readout
Cc1c(F)c(N)cc(C(=O)Nc2cc(-n3cc(C(=O)N4CCN(C)CC4)nn3)c(F)cc2N2C[C@@H](C)N(C)[C@@H](C)C2)c1Cl	1

* * *

# Experiment description: PK profile of HBI-2375 in plasma and brain in C57BL/6J mice
# Assay type: in vivo
# Setup conditions: male, C57BL/6J, mouse, brain, po, 80 mg/kg, mice, single PO 80 mg/kg, male; read-out: AUClast Ratio Brain/Plasma

Compound	Kp
Cc1c(F)c(N)cc(C(=O)Nc2cc(-n3cc(C(=O)N4CCN(C)CC4)nn3)c(F)cc2N2C[C@@H](C)N(C)[C@@H](C)C2)c1Cl [HYBI-084]	0.361
